- study.system: UniProt:C7FF08
- measurement.description: cell-based
- condition.summary: EC50 Ago (M), Supplementary Table I, agonist assay; > 0.01 M = maximal response not reached
Counter-ions that a name gives are not always drawn.
observed.property: EC50 (M)

CN[C@@H]1[C@@H](O)[C@@H](O[C@@H]2[C@@H](O)[C@H](O[C@H]3OC(CN)=CC[C@H]3N)[C@@H](N)C[C@H]2N)OC[C@]1(C)O [Sisomicin sulfate salt, reference compound] : 0.0003
CNC(C)C1CCC(N)C(OC2C(N)CC(N)C(OC3OCC(C)(O)C(NC)C3O)C2O)O1 (stereo not shown) [Gentamicin, reference compound] : 0.00099

P: N[C@@H](CCC(=O)N[C@@H](Cc1ccc(O)cc1)C(=O)O)C(=O)O [γ-Glu-Tyr]
Q: N[C@@H](CS(=O)(=O)O)C(=O)O [L-Cysteic acid monohydrate]
Given the two records P and Q , choose the one whose EC50 value is lower. Please indicate the selected item by its label.
Q

---

- study.system: cCaSR (Felis catus, UniProt C7FF08)
- Sequence (C7FF08 1-1081): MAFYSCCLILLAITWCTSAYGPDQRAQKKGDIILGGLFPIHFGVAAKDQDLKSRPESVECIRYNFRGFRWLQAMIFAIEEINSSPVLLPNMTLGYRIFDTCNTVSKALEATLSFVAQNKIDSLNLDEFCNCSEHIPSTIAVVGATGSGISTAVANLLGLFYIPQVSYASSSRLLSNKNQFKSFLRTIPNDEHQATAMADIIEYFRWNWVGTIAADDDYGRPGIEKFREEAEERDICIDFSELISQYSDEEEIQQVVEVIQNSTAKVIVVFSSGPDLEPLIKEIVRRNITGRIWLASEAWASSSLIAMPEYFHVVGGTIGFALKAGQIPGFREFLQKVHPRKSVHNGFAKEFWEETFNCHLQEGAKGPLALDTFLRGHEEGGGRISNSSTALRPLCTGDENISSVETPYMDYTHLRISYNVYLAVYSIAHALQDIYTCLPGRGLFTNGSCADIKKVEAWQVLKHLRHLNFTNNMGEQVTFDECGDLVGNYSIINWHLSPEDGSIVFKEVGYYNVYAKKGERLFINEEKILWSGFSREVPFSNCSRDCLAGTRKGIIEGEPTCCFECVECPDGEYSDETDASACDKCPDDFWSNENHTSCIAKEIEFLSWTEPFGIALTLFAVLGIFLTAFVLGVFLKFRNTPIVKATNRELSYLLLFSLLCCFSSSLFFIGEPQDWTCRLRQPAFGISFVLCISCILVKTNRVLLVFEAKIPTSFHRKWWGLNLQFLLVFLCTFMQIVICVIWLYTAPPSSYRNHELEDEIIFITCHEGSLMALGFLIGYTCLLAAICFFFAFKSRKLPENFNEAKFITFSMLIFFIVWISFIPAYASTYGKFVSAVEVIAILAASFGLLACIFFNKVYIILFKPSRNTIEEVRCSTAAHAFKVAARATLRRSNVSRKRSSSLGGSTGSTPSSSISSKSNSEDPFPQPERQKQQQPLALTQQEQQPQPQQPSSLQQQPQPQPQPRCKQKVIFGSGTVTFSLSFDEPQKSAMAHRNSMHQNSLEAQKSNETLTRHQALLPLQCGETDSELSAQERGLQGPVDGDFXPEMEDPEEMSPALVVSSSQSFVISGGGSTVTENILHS
- measurement.description: cell-based
- condition.summary: EC50 Value (heat map Fig. 5), cCaSR agonists, heat map
pEC50: −log10 of the molar value.
observed.property: pEC50

N[C@@H](CCC(=O)O)C(=O)O : 2.04

P: CSCC[C@H](NC(=O)CC[C@H](N)C(=O)O)C(=O)O
Q: C[C@H](NC(=O)CC[C@H](N)C(=O)O)C(=O)O
Which entry has a larger number for pEC50, P or Q ? Please indicate the selected item by its label.
Q
(Q: 2.53, P: 2.16)

---

- study.system: cCaSR (Felis catus, UniProt C7FF08)
- condition.summary: agonist assay, stable inducible cCaSR line; > 0.01 M = maximal response not reached
pEC50: −log10 of the molar value.
observed.property: pEC50

O=P(O)(O)CP(=O)(O)O : 2.89
[Ca+2].[Cl-].[Cl-] : 2.79
O=S(=O)([O-])C(F)(F)F.O=S(=O)([O-])C(F)(F)F.O=S(=O)([O-])C(F)(F)F.[Pr+3] : 3.40

I: CC(=O)[O-].CC(=O)[O-].CC(=O)[O-].O.[Tb+3] [Tb^3+, Terbium(III) acetate hydrate]
II: [Gd+3]
Given the two records I and II , choose the one whose pEC50 value is lower. Please indicate the selected item by its label.
II
(II: 3.53, I: 3.76)

---

- study.system: cCaSR (Felis catus, UniProt C7FF08)
- condition.summary: read-out: cCaSR activity
observed.property: EC50

I'd like to know its EC50. The compound in question is [Ba+2].[Cl-].[Cl-] [Ba^2+, Barium chloride dihydrate]
1 to 10 mM

---

- study.system: cCaSR (Felis catus, UniProt C7FF08)
observed.property: pEC50
Please note pEC50 is a logarithmic value: minus log10 of concentration in mol/L. Answer with that number alone.

I'd like to know its pEC50. The compound in question is [Ba+2].[Cl-].[Cl-] [Ba^2+, Barium chloride dihydrate]
2.93

---

- study.system: UniProtKB C7FF08
- Sequence (C7FF08 1-1081): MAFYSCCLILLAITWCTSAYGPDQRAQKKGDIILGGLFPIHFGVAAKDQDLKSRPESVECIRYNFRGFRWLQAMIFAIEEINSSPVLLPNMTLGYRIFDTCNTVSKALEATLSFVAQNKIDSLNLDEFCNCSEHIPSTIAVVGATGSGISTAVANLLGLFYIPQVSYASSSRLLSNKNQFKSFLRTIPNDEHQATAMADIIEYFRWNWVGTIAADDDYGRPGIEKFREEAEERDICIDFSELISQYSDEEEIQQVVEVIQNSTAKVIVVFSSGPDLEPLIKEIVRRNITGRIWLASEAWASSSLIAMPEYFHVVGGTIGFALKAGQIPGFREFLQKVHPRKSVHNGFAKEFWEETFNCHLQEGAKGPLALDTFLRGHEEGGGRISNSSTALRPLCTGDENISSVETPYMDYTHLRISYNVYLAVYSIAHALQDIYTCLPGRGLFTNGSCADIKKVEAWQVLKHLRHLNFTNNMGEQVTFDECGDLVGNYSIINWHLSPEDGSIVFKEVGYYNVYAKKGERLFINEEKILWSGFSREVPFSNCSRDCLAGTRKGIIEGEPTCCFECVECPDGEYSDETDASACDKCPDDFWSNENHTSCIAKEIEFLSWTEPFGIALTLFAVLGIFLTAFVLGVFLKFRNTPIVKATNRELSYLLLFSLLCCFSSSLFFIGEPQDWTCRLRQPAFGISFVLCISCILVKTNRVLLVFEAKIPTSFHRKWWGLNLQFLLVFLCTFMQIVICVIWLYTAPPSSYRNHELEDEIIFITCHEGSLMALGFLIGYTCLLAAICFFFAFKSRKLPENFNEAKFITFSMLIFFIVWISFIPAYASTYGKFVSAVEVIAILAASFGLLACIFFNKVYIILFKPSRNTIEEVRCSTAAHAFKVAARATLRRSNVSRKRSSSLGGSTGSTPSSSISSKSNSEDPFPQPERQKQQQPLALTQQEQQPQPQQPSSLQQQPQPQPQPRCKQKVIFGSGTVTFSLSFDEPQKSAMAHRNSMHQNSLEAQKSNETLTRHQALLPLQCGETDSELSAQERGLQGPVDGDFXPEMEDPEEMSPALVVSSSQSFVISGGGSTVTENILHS
- measurement.description: cell-based
- condition.summary: EC50 (M), agonist assay, stable inducible cCaSR line; > 0.01 M = maximal response not reached
Structures can show the parent of a compound that is named as a salt.
observed.property: EC50 (M)

CN[C@@H]1[C@@H](O)[C@@H](O[C@@H]2[C@@H](O)[C@H](O[C@H]3OC(CN)=CC[C@H]3N)[C@@H](N)C[C@H]2N)OC[C@]1(C)O [Sisomicin sulfate salt, reference compound] : 0.000299

I: N[C@@H](CCC(=O)N[C@@H](CCC(=O)O)C(=O)O)C(=O)O [γ-Glu-Glu]
II: N[C@H](CCC(=O)N[C@@H](Cc1c[nH]c2ccccc12)C(=O)O)C(=O)O [γ-D-Glu-Trp]
Given the two records I and II , choose the one whose EC50 value is lower. Please indicate the selected item by its label.
I
(I: 0.00207 M, II: 0.0042 M)

---

- study.system: cCaSR (Felis catus)
- measurement.description: cell-based
- condition.summary: cCaSR stable EC50(mM), stably expressed cCaSR, Fig. 6b; > 3 mM = maximal response not reached
observed.property: EC50 (mM)

A: CC(C)[C@H](NC(=O)CC[C@H](N)C(=O)O)C(=O)NCC(=O)O
B: NC[C@H]1O[C@H](O[C@H]2[C@H](O)[C@@H](O[C@H]3O[C@H](CO)[C@@H](O)[C@H](N)[C@H]3O)[C@H](N)C[C@@H]2N)[C@H](N)C[C@@H]1O [Tobramycin, reference compound]
Which entry has a larger number for EC50, A or B ? Please indicate the selected item by its label.
A
